# Tested on: K562 cells
# testSummary: Cell viability, Cell Titer Glo 2.0 assay, K562
# conditionInfo: 72 hours
Counter-ions that a name gives are not always drawn.
parameter: Effect on Cell Viability, K562

| compound | targetOrSystem | obsValue |
| --- | --- | --- |
| CN(c1cnc2nc(-c3cc4cn(C)nc4c(F)c3O)cc(Cl)c2c1)[C@@H]1CCNC1 | K562 cells | A (<100 nM) |
| CC1CN(c2cnc3nc(-c4cc(F)c5nn(C)cc5c4)cc(Cl)c3c2)CCN1 (centres unmarked) [Compound 203, 2,2,2-trifluoroacetate] | K562 cells | B (100-1000 nM) |
| Cc1c(O)c(-c2ccc3cc(N4CC[C@@H](NCC5CC5)C4)cnc3n2)cc2cn(C)nc12 | K562 cells | A (<100 nM) |
| Cn1cc2cc(-c3cc(Cl)c4cc(N5CC[C@@H](NCCF)C5)cnc4n3)c(O)cc2n1 [Compound 387, hydrochloride] | K562 cells | B (100-1000 nM) |

###

# System: K562 cells
# testSummary: Cell viability, Cell Titer Glo 2.0 assay, K562
# conditionInfo: 72 hours
Counter-ions that a name gives are not always drawn.
parameter: Effect on Cell Viability, K562

| compound | obsValue |
| --- | --- |
| CCN[C@@H]1CCN(c2cnc3nc(-c4cc5cn(C)nc5cc4O)cc(Cl)c3c2)C1 | A (<100 nM) |
| COc1nc(-c2cc3cn(C)nc3c(F)c2O)nc2ncc(N3CCC(N(C)C)CC3)cc12 | A (<100 nM) |
| Cc1c(O)c(-c2ccc3c(Cl)c(N4CCNCC4)cnc3n2)cc2cn(C)nc12 | A (<100 nM) |
| Cn1cc2cc(-c3cc(Cl)c4cc(N5CC[C@@H](N6CCC6)C5)cnc4n3)c(O)cc2n1 | B (100-1000 nM) |
| CCN[C@@H]1CCN(c2cnc3nc(-c4cc5cn(C)nc5cc4O)ccc3c2)C1 [Compound 310, hydrochloride] | B (100-1000 nM) |
| CN[C@@H]1CN(c2cnc3nc(-c4cc5cn(C)nc5c(C)c4O)ccc3c2)C[C@H]1F (single isomer, unassigned) | B (100-1000 nM) |
| Cc1c(O)c(-c2ccc3c(Cl)c(N4C[C@H](C)N[C@@H](C)C4)cnc3n2)cc2cn(C)nc12 | B (100-1000 nM) |
| CCN[C@H]1CCN(c2cnc3nc(-c4cc5cn(C)nc5cc4O)cc(Cl)c3c2)C1 | A (<100 nM) |

###

Parameter IC50: see the listing below.
# System: MYB mRNA
# testSummary: Splicing RT-qPCR assay, MYB canonical (CJ) and alternative (AJ) junction mRNA
# Format: cell-based, human
# conditionInfo: Homo sapiens; canonical junction mRNA, RT-qPCR, A673 or K562 cells, 24 hours treatment; read-out: MYB CJ (IC50, decrease in CJ mRNA)
Structures can show the parent of a compound that is named as a salt.

| compound | IC50 |
| --- | --- |
| CN[C@H]1CCN(c2cnc3nc(-c4cc(C)c5nc(C)cn5n4)cc(Cl)c3c2)C1 | < 100 nM |
| Cn1cc2cc(-c3cc(Cl)c4cc(N5CC[C@@H](NCCF)C5)cnc4n3)c(O)cc2n1 [Compound 387, hydrochloride] | < 100 nM |
| Cc1c(O)c(-c2ncc3cc(N4C[C@@H](C)N[C@@H](C)C4)cnc3n2)cc2cn(C)nc12 | 100 to 1000 nM |
| CN[C@@H]1CCN(c2cnc3nc(-c4cc5cn(C)nc5c(C)c4O)ncc3c2)C1 [Compound 107, hydrochloride] | < 100 nM |
| Cc1cn2cc(-c3ccc4cc(N5C[C@@H](C)N[C@@H](C)C5)cnc4n3)cc(F)c2n1 | 100 to 1000 nM |

###

# Tested on: K562 cells
# testSummary: Cell viability, Cell Titer Glo 2.0 assay, K562
# conditionInfo: 72 hours

| compound | Effect on Cell Viability, K562 |
| --- | --- |
| CNC1CCN(c2cnc3nc(-c4cc5cn(C)nc5cc4O)cc(Cl)c3c2)C1 (stereo not shown) [Compound 213] | B (100-1000 nM) |
| Cn1cc2cc(-c3cnc4cc(N5CC[C@@H](NC6CC6)C5)ccc4n3)c(O)c(F)c2n1 [Compound 177] | A (<100 nM) |
| Cc1c(N2C[C@H](C)N[C@@H](C)C2)cnc2nc(-c3cc4cn(C)nc4c(C)c3O)ccc12 [Compound 395] | B (100-1000 nM) |
| Cc1c(O)c(-c2ccc3cc(N4CCC(N(C)C)CC4)cnc3n2)cc2cn(C)nc12 [Compound 138] | A (<100 nM) |
| Cc1cn2nc(-c3cc(Cl)c4cc(N5C[C@@H](C)N[C@@H](C)C5)cnc4n3)cc(C)c2n1 [Compound 335] | B (100-1000 nM) |
| CN[C@@H]1CCN(c2cnc3nc(-c4cc5cn(C)nc5c(C)c4O)ccc3c2)C1 [Compound 112] | B (100-1000 nM) |
| Cc1c(O)c(-c2cc(Cl)c3cc(N4CCNC(C)C4)cnc3n2)cc2cn(C)nc12 (stereo not shown) [Compound 147] | B (100-1000 nM) |
| Cc1cn2cc(-c3cc(Cl)c4cc(N5C[C@H](C)N[C@@H](C)C5)cnc4n3)cc(F)c2n1 [Compound 298] | B (100-1000 nM) |
| C[C@@H]1CN(c2cnc3nc(-c4cc(F)c5nn(C)cc5c4)cc(Cl)c3c2)C[C@H](C)N1 [Compound 215] | B (100-1000 nM) |

###

# Tested on: K562 cells
# testSummary: Cell viability, Cell Titer Glo 2.0 assay, K562
# conditionInfo: 72 hours

| molecule | targetOrSystem | Effect on Cell Viability, K562 |
| --- | --- | --- |
| CCN[C@@H]1CCN(c2cnc3nc(-c4cc5cn(C)nc5c(C)c4O)ccc3c2)C1 | K562 cells | A (<100 nM) |
| Cc1cn2cc(-c3ccc4cc(N5C[C@@H](C)N[C@@H](C)C5)cnc4n3)cc(F)c2n1 | K562 cells | C (1000-9999 nM) |
| Cc1cn2cc(-c3cnc4nc(C5CCNCC5)ccc4c3)cc(C)c2n1 | K562 cells | C (1000-9999 nM) |
| C[C@H]1CN(c2cnc3nc(-c4cc5cn(C)nc5cc4O)cc(Cl)c3c2)C[C@H](C)N1 | K562 cells | A (<100 nM) |
| C[C@H]1CN(c2cnc3nc(-c4cc(F)c5nn(C)cc5c4)cc(Cl)c3c2)C[C@@H](C2CC2)N1 | K562 cells | B (100-1000 nM) |
| Cc1c(O)c(-c2cc(Cl)c3cc(N(C)[C@H]4CCNC4)cnc3n2)cc2cn(C)nc12 | K562 cells | B (100-1000 nM) |
| Cc1c(O)c(-c2cc(Cl)c3cc(N4CCNC5(CC5)C4)cnc3n2)cc2cn(C)nc12 | K562 cells | B (100-1000 nM) |
| Cc1cn2nc(-c3ccc4c(Cl)c(N5C[C@H](C)N[C@@H](C)C5)cnc4n3)cc(C)c2n1 | K562 cells | B (100-1000 nM) |
| C[C@H]1CN(c2cnc3nc(-c4cc(F)c5nn(C)cc5c4)ccc3c2Cl)CCN1 | K562 cells | A (<100 nM) |
| Cn1cc2cc(-c3cnc4nc(N5CCNCC5)cc(Cl)c4c3)cc(F)c2n1 | K562 cells | B (100-1000 nM) |
| CN[C@H]1CCN(c2cnc3nc(-c4cc5cn(C)nc5c(C)c4O)ccc3c2)C1 | K562 cells | A (<100 nM) |
| C[C@H]1CN(c2cnc3nc(-c4cc5cn(C)nc5cc4O)cc(Cl)c3c2)CC2(CC2)N1 | K562 cells | B (100-1000 nM) |
| Cc1c(O)c(-c2ncc3cc(N4CC[C@H](N)C4)cnc3n2)cc2cn(C)nc12 [Compound 160, 2,2,2-trifluoroacetate] | K562 cells | B (100-1000 nM) |
| CN1CCC[C@H]2CN(c3cnc4nc(-c5cc(F)c6nn(C)cc6c5)cc(Cl)c4c3)C[C@H]21 | K562 cells | C (1000-9999 nM) |
| Cc1nc2c(C)c(O)c(-c3cnc4cc(N5CCC(NC6CC6)C5)ccc4n3)cc2o1 (stereo not shown) | K562 cells | A (<100 nM) |
